molecular target: human histamine H4 receptor (Homo sapiens, UniProt Q9H3N8); construct: expressed in transfected cells; host or cells: SK-N-MC cells or COS7 cells, transient transfection with pH4R; cell membranes; assay: Binding Assay on Recombinant Human Histamine H4 Receptor; settings: competition binding with 3H-histamine (5 nM; KD 5 nM), membranes of SK-N-MC or COS7 cells expressing human H4 receptor; average of results; > = highest value tested
Sequence (Q9H3N8 whole entry): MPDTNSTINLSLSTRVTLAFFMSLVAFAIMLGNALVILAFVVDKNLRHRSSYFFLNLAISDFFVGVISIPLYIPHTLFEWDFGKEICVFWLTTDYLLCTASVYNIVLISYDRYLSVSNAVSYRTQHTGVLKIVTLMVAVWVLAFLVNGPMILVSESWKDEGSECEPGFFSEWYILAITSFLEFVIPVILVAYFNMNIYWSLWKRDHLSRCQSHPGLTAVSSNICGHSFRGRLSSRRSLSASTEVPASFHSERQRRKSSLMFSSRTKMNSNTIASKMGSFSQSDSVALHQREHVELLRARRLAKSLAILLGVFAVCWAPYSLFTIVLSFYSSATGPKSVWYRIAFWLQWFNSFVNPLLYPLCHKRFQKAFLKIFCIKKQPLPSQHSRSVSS
Overview of reported Ki across a group of compounds:
measuredEndpoint: Ki (µM)

>>> recordedmeasurement("Cc1cccc2[nH]c(-c3ccc4c(ccn4CCCC4CCN(C)CC4)c3)nc12 [Example 12]")
0.12
>>> recordedmeasurement("Cc1cc(C)c2nc(-c3cccc4c3ccn4CCCCC3CCNCC3)[nH]c2c1 [Example 139]")
2.64
>>> recordedmeasurement("Cc1cccc2[nH]c(-c3ccc4ccn(CCCCC5CCN(C)CC5)c4c3)nc12 [Example 27]")
0.75
>>> recordedmeasurement("Cc1cc(Cl)cc2[nH]c(-c3ccc4c(c3)c(Cl)cn4CCCC3CCN(C)CC3)nc12 [Example 29]")
1.67

* * *

target: human histamine H4 receptor (Homo sapiens, UniProt Q9H3N8); construct: expressed in transfected cells; host or cells: SK-N-MC cells or COS7 cells, transient transfection with pH4R; cell membranes; experiment: Binding Assay on Recombinant Human Histamine H4 Receptor; conditions: competition binding with 3H-histamine (5 nM; KD 5 nM), membranes of SK-N-MC or COS7 cells expressing human H4 receptor; average of results; > = highest value tested
Okay, here is how we bin by Ki: category 1: < 100 nM; category 2: ≥ 100 nM and < 2000 nM; category 3: ≥ 2000 nM

>>> group("Cc1ccc2[nH]c(-c3cc4ccn(CCCC5CCN(C)CC5)c4cc3Cl)nc2c1C")
"category 3"
>>> group("Cc1cc(F)cc2[nH]c(-c3ccc4c(ncn4CCCC4CCNCC4)c3C)nc12")
"category 2"
>>> group("Cc1cc(Cl)cc2[nH]c(-c3cccc4c3ccn4CCCCC3CCNCC3)nc12")
"category 3"
>>> group("Cc1c(-c2nc(C(F)(F)F)c(-c3ccccc3)[nH]2)ccc2c1ncn2CCCC1CCN(C)CC1")
"category 1"
>>> group("Cc1ccc2[nH]c(-c3cccc4c3ccn4CCCCC3CCNCC3)nc2c1C")
"category 3"
>>> group("Fc1cc(F)c2nc(-c3cccc4c3ccn4CCCCC3CCNCC3)[nH]c2c1")
"category 3"
>>> group("CN1CCN(CCCn2ccc3cc(-c4nc5cc(Cl)ccc5[nH]4)ccc32)CC1")
"category 2"
>>> group("Cc1cc(C)c2nc(-c3ccc4ccn(CCCCC5CCNCC5)c4c3)[nH]c2c1")
"category 3"
>>> group("Cc1c(F)ccc2[nH]c(-c3ccc4c(ncn4CCCC4CCNCC4)c3C)nc12")
"category 2"
>>> group("CN1CCC(CCCCn2ccc3c(-c4nc5c(Cl)cccc5[nH]4)cccc32)CC1")
"category 1"
>>> group("Cc1c(F)ccc2[nH]c(-c3ccc4c(c3F)CCN4CCCC3CCN(C)CC3)nc12")
"category 2"
>>> group("Cc1c(-c2nc3cc(Cl)ccc3[nH]2)ccc2c1CCN2CCCC1CCN(C)CC1")
"category 1"
>>> group("Clc1ccc2[nH]c(-c3cc4ccn(CCCC5CCNCC5)c4cc3Cl)nc2c1")
"category 3"
>>> group("Cc1cc(C)c2nc(-c3ccc4c(c3Cl)CCN4CCCC3CCN(C)CC3)[nH]c2c1")
"category 1"
>>> group("Cc1c(-c2nc3c(C)c(F)ccc3[nH]2)ccc2c1CCN2CCCC1CCN(C)CC1")
"category 1"
>>> group("FC(F)(F)c1ccc2nc(-c3cccc4c3ccn4CCCCC3CCNCC3)[nH]c2c1")
"category 3"
>>> group("Cc1[nH]c(-c2ccc3c(ccn3CCCN3CCN(C)CC3)c2)nc1-c1cccc(C(F)(F)F)c1")
"category 2"
